tested on: K562; experiment: Cytotoxicity against human K562 cells assessed as cellular growth at 10 uM by SRB assay; assay type: functional
Assign Activity to each entry below.
Give bare numbers, in %.

Observe how each entry below is paired with its result.
>>> reported_result("Nc1c(C(=O)Nc2ccccc2F)sc2nc3c(cc12)C(=O)CCC3")
26.33
>>> reported_result("Cc1ccc(Cl)cc1NC(=O)c1sc2nc3c(cc2c1N)C(=O)CCC3")
33.61

Next compound, Activity to be filled in.
GET /values?readout=Activity&item= CC1(C)CC(=O)c2cc3c(N)c(C(=O)Nc4ccc(Cl)cc4)sc3nc2C1
107.2
